# tested.target: Cytochrome P450 2C19 (Homo sapiens) (UniProt P33261)
# Sequence (P33261 whole entry, looked up): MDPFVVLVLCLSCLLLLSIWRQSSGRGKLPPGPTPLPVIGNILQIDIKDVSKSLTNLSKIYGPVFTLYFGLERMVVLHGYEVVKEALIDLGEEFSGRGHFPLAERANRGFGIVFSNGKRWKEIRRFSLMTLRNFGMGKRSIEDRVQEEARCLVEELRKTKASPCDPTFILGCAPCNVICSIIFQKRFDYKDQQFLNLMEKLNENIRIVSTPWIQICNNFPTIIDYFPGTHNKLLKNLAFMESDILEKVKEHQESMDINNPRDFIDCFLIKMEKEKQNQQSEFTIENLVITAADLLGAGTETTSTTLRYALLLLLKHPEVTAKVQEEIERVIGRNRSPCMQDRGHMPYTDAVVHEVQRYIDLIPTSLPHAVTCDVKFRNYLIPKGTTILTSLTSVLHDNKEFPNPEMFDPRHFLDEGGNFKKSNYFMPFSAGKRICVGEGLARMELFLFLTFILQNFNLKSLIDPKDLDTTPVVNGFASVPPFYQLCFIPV
# assay.remarks: Cytochrome panel assay with activity outcomes
# applied.conditions: recombinant CYP, pro-luciferin dealkylation, luminescence, p450-cyp2c19; series mostly up to 57.1 µM
Hit rate of the full screen: of about 16,000 compounds, about 5,800 (36%) were called active. About 23% were inconclusive and are not listed. Calls come from the whole dose curve; as a rule, active = well fitted curve in the direction sought with a large enough effect; inconclusive = small, poorly fitted or top-dose-only effect, or effect the other way; inactive = no such curve, though single readings can be large or run the other way. This is one part of the list.
Classes used: yes = active, no = inactive

> print(dat)
                                    molecule  classification
 1               O=C(NCCN1CCCCC1)c1ccc(I)cc1              no
 2  O=S(=O)(c1ccccc1)N1CCC2(CCN(C(c3ccccc3)c3ccccc3)CC2)CC1              no
 3  Cn1c(=O)c(-c2cccc(C#N)c2)nc2cnc(Oc3ccccc3)nc21              no
 4  Cn1cccc1C(=O)N1CCC2(CC1)CCN(c1ccc(-c3ccccc3)cc1)CC2              no
 5    COc1ccc(Oc2nccc(-c3ccc(F)cc3)c2C#N)cc1              no
 6  NC(=O)CNC(=O)[C@@H]1CC2(CC(c3cccc([N+](=O)[O-])c3)=NO2)CN1C(=O)c1ccccc1 (stereo not given in full)              no
 7  COc1ccc(C(=O)Nc2ccc(Cl)cc2C(=O)NCCN2CCOCC2)cc1             yes
 8           COc1ccc(C(=O)NCCCN2CCOCC2)cc1OC              no
 9     Cc1ccc(C(=O)NCCCN2CCOCC2)cc1N1CCCC1=O              no
10  O=C(NCc1ccccc1)C12CN(Cc3ccccc3)CC1C(c1cccc([N+](=O)[O-])c1)=NO2 (stereo not given)             yes

###

# tested.target: Cytochrome P450 2C19 (Homo sapiens) (UniProt P33261)
# assay.remarks: Cytochrome panel assay with activity outcomes
# applied.conditions: recombinant CYP, pro-luciferin dealkylation, luminescence, p450-cyp2c19; series mostly up to 57.1 µM
Out of some 16,000 compounds screened, about 5,800 (36%) were called active. About 23% were inconclusive and are not listed. The call rests on the fitted dose curve; in most records, active means well fitted curve in the direction sought with a large enough effect; inconclusive means small, poorly fitted or top-dose-only effect, or effect the other way; inactive means no such curve, though single readings can be large or run the other way. This is one part of the list.
Classes used: 1.0 for active, 0.0 for inactive

> print(dat)
                                    compound                             tested.target  classification
 1  CCOC(=O)CSC1=C(C#N)C(C)C2=C(CCCC2=O)N1 (stereo not drawn)  Cytochrome P450 2C19 (Homo sapiens) (UniProt P33261)             1.0
 2  Cc1cc(C)c2[nH]c(=O)c(CN(Cc3ccco3)C(=O)c3cccs3)cc2c1  Cytochrome P450 2C19 (Homo sapiens) (UniProt P33261)             1.0
 3  COc1cc(N)c(Cl)cc1C(=O)NC1CCN(Cc2ccccc2)CC1  Cytochrome P450 2C19 (Homo sapiens) (UniProt P33261)             0.0
 4      COc1ccccc1NC(=O)CN1CCN(c2ccccc2F)CC1  Cytochrome P450 2C19 (Homo sapiens) (UniProt P33261)             1.0
 5  CC1Cc2ccccc2N1C(=O)CSc1nnnn1C(C)C (stereo not drawn)  Cytochrome P450 2C19 (Homo sapiens) (UniProt P33261)             1.0
 6       CN(C)c1ccc(-c2cncnc2NCCN2CCOCC2)cc1  Cytochrome P450 2C19 (Homo sapiens) (UniProt P33261)             1.0
 7  CCC(C)[C@H](NC(=O)NC1CCN(Cc2ccccc2)CC1)C(=O)OC (stereo partly drawn)  Cytochrome P450 2C19 (Homo sapiens) (UniProt P33261)             0.0
 8  CN(C)C(=O)c1ccc(-c2cncnc2NCCN2CCOCC2)cc1  Cytochrome P450 2C19 (Homo sapiens) (UniProt P33261)             0.0
 9  O=C(Oc1ccccc1N1C(=O)C2CCCCC2C1=O)c1ccccc1 (stereo not drawn)  Cytochrome P450 2C19 (Homo sapiens) (UniProt P33261)             1.0
10    Cc1ccc(-c2csc3ncnc(NCCN4CCOCC4)c23)cc1  Cytochrome P450 2C19 (Homo sapiens) (UniProt P33261)             1.0
11  CN(C)CCNC(=O)C(C(=O)c1ccc(F)cc1)n1ccccc1=O (stereo not drawn)  Cytochrome P450 2C19 (Homo sapiens) (UniProt P33261)             0.0
12              COc1ccc(Cc2c(N)nc(N)nc2N)cc1  Cytochrome P450 2C19 (Homo sapiens) (UniProt P33261)             0.0
13  CC1(C)SC(=S)N(Cc2ccc3c(c2)OCO3)C1N(O)C(=O)NC1CCCCC1 (stereo not drawn)  Cytochrome P450 2C19 (Homo sapiens) (UniProt P33261)             1.0
14         CCCc1cc2c(cc1NC(=O)c1ccccc1C)OCO2  Cytochrome P450 2C19 (Homo sapiens) (UniProt P33261)             1.0
15  CCN1CCN(CC(=O)N2c3ccccc3CC2C)CC1 (stereo not drawn)  Cytochrome P450 2C19 (Homo sapiens) (UniProt P33261)             0.0
16  COC(=O)c1nn(-c2cccc(C(F)(F)F)c2)c(=O)cc1Sc1ccccn1  Cytochrome P450 2C19 (Homo sapiens) (UniProt P33261)             1.0
17      CCCc1cc2c(cc1NC(=O)c1ccc(Br)cc1)OCO2  Cytochrome P450 2C19 (Homo sapiens) (UniProt P33261)             1.0
18  CN(C)C(=O)c1ccc(-c2ccc3ncnc(NCCN4CCOCC4)c3c2)cc1  Cytochrome P450 2C19 (Homo sapiens) (UniProt P33261)             0.0
19  N#Cc1cccc(NC(=O)N2CC[C@@]3(CCCN(C(=O)c4ccncc4)C3)C2)c1  Cytochrome P450 2C19 (Homo sapiens) (UniProt P33261)             0.0
20  CC(C)OC(=O)c1cc2c(OC[C@@H](O)CNC(C)(C)C)cccc2[nH]1  Cytochrome P450 2C19 (Homo sapiens) (UniProt P33261)             0.0
21     Nc1ccc(Sc2cnn(-c3ccccc3)c(=O)c2Cl)cc1  Cytochrome P450 2C19 (Homo sapiens) (UniProt P33261)             1.0
22  Cc1ccc(NC(=O)CN2CCC(NC(=O)Cc3ccccc3)CC2)cc1C  Cytochrome P450 2C19 (Homo sapiens) (UniProt P33261)             1.0
23  CC1Cc2ccccc2N1C(=O)CN1C(=O)COc2ccccc21 (stereo not drawn)  Cytochrome P450 2C19 (Homo sapiens) (UniProt P33261)             1.0
